Biological target: full-length kinase/Nluc fusion proteins (Homo sapiens, UniProt P54646)
Sequence (P54646 whole entry, the tested form may be a part): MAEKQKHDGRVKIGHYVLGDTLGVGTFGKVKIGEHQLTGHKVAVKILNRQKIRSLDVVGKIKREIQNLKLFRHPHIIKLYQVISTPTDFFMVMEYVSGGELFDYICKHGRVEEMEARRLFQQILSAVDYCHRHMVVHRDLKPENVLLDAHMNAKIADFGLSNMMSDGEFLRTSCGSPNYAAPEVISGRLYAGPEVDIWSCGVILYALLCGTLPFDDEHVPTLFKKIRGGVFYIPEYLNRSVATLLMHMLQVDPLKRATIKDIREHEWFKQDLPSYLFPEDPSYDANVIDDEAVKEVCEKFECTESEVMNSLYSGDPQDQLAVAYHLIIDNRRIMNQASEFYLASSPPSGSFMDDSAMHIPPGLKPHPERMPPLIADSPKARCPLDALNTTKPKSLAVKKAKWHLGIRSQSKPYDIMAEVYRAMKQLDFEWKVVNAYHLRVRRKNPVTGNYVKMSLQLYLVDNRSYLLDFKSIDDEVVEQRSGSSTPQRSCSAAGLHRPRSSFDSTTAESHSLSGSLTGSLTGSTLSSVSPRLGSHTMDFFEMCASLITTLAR
Experiment: Apparent affinity (EC50) of energy transfer probes by titration onto live HEK293 cells expressing kinase/Nluc fusions (Table S1)
Format: binding
Details: PRKAA2, Nluc N; read-out: Probe EC50
pEC50: −log10 of the molar value.
endpoint_name: pEC50

Problem: Indicate its recorded pEC50; the molecule in question is CNC(=O)c1ccccc1Nc1nc(Nc2ccc(N3CCN(C(=O)CCOCCOCCOCCOCCNC(=O)CCc4ccc5n4[B-](F)(F)[N+]4=C(c6ccc[nH]6)C=CC4=C5)CC3)cc2)ncc1Cl [Energy Transfer Probe 5]
Solution: < 6.00

====

Target: full-length kinase/Nluc fusion proteins (Homo sapiens, UniProt Q13882)
Sequence (Q13882 whole entry, the tested form may be a part): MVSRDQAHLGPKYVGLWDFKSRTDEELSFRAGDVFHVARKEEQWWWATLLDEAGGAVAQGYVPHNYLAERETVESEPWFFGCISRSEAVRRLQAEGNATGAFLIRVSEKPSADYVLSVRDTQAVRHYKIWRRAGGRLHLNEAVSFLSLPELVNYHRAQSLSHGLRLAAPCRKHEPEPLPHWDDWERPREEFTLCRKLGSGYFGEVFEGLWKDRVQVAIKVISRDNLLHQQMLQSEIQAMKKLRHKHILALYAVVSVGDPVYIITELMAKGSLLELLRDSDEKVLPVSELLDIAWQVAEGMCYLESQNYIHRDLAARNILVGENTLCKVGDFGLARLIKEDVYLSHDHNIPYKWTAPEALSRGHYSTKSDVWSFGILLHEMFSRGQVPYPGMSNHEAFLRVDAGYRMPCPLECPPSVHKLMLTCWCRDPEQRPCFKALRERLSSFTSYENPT
Experiment: Apparent affinity (EC50) of energy transfer probes by titration onto live HEK293 cells expressing kinase/Nluc fusions (Table S1)
Conditions: PTK6, Nluc C; read-out: Probe EC50
endpoint_name: pEC50
Here pEC50 is given on a logarithmic scale as minus log10 of the concentration in mol/L.

Problem: In one line, give reported pEC50 of the entry Cc1nc(Nc2ncc(C(=O)Nc3c(C)cccc3Cl)s2)cc(N2CCN(CCOCCNC(=O)CCc3ccc4n3[B-](F)(F)[N+]3=C(c5ccc[nH]5)C=CC3=C4)CC2)n1 [Energy Transfer Probe 6] .
Solution: 6.70

====

Biological target: full-length kinase/Nluc fusion proteins (Homo sapiens)
Experiment: Apparent affinity (EC50) of energy transfer probes by titration onto live HEK293 cells expressing kinase/Nluc fusions (Table S1)
Conditions: DYRK1B, Nluc N; read-out: Probe EC50
endpoint_name: EC50

Problem: Please look at this compound and report its EC50: CNC(=O)c1ccccc1Nc1nc(Nc2ccc(N3CCN(C(=O)CCOCCOCCOCCOCCNC(=O)CCc4ccc5n4[B-](F)(F)[N+]4=C(c6ccc[nH]6)C=CC4=C5)CC3)cc2)ncc1Cl [Energy Transfer Probe 5]
Solution: > 1000 nM

====

Biological target: full-length kinase/Nluc fusion proteins (Homo sapiens)
Assay: Apparent affinity (EC50) of energy transfer probes by titration onto live HEK293 cells expressing kinase/Nluc fusions (Table S1)
Conditions: LIMK2, Nluc C; read-out: Probe EC50
endpoint_name: EC50

Problem: Return reported EC50. Input compound: Cc1nc(Nc2ncc(C(=O)Nc3c(C)cccc3Cl)s2)cc(N2CCN(CCOCCNC(=O)CCc3ccc4n3[B-](F)(F)[N+]3=C(c5ccc[nH]5)C=CC3=C4)CC2)n1 [Energy Transfer Probe 6]
Solution: > 1000 nM

====

Target: full-length kinase/Nluc fusion proteins (Homo sapiens, UniProt P51956)
Sequence (P51956 1-506): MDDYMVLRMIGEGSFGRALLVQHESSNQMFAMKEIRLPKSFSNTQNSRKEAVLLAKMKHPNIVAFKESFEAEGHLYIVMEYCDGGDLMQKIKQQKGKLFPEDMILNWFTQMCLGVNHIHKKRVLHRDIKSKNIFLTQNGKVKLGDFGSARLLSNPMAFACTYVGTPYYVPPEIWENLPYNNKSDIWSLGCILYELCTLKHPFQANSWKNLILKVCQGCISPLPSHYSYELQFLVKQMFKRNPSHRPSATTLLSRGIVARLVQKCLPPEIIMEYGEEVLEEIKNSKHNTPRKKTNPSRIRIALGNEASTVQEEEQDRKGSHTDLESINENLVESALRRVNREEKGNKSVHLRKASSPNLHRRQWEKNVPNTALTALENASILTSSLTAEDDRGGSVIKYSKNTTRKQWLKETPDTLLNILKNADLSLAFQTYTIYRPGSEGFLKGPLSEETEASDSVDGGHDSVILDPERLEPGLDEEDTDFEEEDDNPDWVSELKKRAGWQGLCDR
Test: Apparent affinity (EC50) of energy transfer probes by titration onto live HEK293 cells expressing kinase/Nluc fusions (Table S1)
Conditions: NEK3, Nluc N; read-out: Probe EC50
endpoint_name: EC50

Problem: Dear colleague, please send me the reported EC50 for CNC(=O)c1ccccc1Nc1nc(Nc2ccc(N3CCN(C(=O)CCOCCOCCOCCOCCNC(=O)CCc4ccc5n4[B-](F)(F)[N+]4=C(c6ccc[nH]6)C=CC4=C5)CC3)cc2)ncc1Cl [Energy Transfer Probe 5] when you can.
Solution: > 1000 nM

====

Biological target: full-length kinase/Nluc fusion proteins (Homo sapiens)
Assay: Apparent affinity (EC50) of energy transfer probes by titration onto live HEK293 cells expressing kinase/Nluc fusions (Table S1)
Details: BRSK2, Nluc N; read-out: Probe EC50
endpoint_name: EC50

Problem: Entry CNC(=O)c1ccccc1Nc1nc(Nc2ccc(N3CCN(C(=O)CCOCCOCCOCCOCCNC(=O)CCc4ccc5n4[B-](F)(F)[N+]4=C(c6ccc[nH]6)C=CC4=C5)CC3)cc2)ncc1Cl [Energy Transfer Probe 5] needs its EC50 filled in; supply it.
Solution: > 1 µM

====

Biological target: full-length kinase/Nluc fusion proteins (Homo sapiens, UniProt P24941)
Test: Apparent affinity (EC50) of energy transfer probes by titration onto live HEK293 cells expressing kinase/Nluc fusions (Table S1)
Details: CDK2, Nluc C; read-out: Probe EC50
endpoint_name: pEC50
Please note pEC50 is a logarithmic value: minus log10 of concentration in mol/L. Answer with that number alone.

Problem: Please look at this compound and report its pEC50: N#CCc1ccc(Nc2nc(NCCCCNC(=O)CCc3ccc4n3[B-](F)(F)[N+]3=C(c5ccc[nH]5)C=CC3=C4)cc(Nc3cc(C4CC4)[nH]n3)n2)cc1 [Energy Transfer Probe 1]
Solution: 6.52

====

Target: LCK (Homo sapiens, UniProt P06239)
Sequence (P06239 whole entry): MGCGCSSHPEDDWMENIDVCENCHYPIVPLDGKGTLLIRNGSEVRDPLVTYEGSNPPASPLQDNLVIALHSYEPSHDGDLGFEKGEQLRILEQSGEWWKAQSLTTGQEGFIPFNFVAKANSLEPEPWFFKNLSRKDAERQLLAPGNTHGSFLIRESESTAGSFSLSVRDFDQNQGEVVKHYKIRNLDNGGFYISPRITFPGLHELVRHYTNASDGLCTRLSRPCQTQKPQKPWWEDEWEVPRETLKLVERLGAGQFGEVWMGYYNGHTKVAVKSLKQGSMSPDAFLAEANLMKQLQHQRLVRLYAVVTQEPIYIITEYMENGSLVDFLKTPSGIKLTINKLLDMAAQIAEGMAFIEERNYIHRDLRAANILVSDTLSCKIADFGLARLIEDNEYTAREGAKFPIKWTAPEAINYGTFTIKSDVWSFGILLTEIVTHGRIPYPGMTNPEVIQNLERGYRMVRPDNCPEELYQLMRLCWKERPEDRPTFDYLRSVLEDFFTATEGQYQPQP
Test: NanoBRET target engagement, LCK-NanoLuc, HEK293 cells (live, ATP depleted, permeabilized)
Format: binding
Settings: LCK Replicate 4; permeabilized HEK293; probe 5; read-out: ATP Kd
endpoint_name: pKd
Scale for pKd: -log10 of concentration given in mol/L; no unit attached.

Problem: Please look at this compound and report its pKd: Nc1ncnc2c1ncn2[C@@H]1O[C@H](COP(=O)(O)OP(=O)(O)OP(=O)(O)O)[C@@H](O)[C@H]1O [ATP]
Solution: 4.80

====

Molecular target: full-length kinase/Nluc fusion proteins (Homo sapiens, UniProt P31749)
Sequence (P31749 whole entry, the tested form may be a part): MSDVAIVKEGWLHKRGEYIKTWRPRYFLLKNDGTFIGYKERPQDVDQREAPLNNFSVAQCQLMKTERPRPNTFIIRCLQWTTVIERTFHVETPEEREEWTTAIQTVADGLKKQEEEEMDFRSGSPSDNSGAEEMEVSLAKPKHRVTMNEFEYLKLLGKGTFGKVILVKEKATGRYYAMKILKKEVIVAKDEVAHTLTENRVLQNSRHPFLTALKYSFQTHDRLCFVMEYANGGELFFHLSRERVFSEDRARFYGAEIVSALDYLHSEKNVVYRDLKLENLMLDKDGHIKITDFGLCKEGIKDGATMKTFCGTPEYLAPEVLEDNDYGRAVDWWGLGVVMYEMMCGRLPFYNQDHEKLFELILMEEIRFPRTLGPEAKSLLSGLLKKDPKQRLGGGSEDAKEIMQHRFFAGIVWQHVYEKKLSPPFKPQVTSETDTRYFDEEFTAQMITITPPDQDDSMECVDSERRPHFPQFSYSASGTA
Assay: Apparent affinity (EC50) of energy transfer probes by titration onto live HEK293 cells expressing kinase/Nluc fusions (Table S1)
Conditions: AKT1, Nluc C; read-out: Probe EC50
pEC50: −log10 of the molar value.
endpoint_name: pEC50

Problem: Fill in pEC50 for record CNC(=O)c1ccccc1Nc1nc(Nc2ccc(N3CCN(C(=O)CCOCCOCCOCCOCCNC(=O)CCc4ccc5n4[B-](F)(F)[N+]4=C(c6ccc[nH]6)C=CC4=C5)CC3)cc2)ncc1Cl [Energy Transfer Probe 5]
Solution: < 6.00

====

Target: full-length kinase/Nluc fusion proteins (Homo sapiens, UniProt Q06187)
Sequence (Q06187 whole entry, the tested form may be a part): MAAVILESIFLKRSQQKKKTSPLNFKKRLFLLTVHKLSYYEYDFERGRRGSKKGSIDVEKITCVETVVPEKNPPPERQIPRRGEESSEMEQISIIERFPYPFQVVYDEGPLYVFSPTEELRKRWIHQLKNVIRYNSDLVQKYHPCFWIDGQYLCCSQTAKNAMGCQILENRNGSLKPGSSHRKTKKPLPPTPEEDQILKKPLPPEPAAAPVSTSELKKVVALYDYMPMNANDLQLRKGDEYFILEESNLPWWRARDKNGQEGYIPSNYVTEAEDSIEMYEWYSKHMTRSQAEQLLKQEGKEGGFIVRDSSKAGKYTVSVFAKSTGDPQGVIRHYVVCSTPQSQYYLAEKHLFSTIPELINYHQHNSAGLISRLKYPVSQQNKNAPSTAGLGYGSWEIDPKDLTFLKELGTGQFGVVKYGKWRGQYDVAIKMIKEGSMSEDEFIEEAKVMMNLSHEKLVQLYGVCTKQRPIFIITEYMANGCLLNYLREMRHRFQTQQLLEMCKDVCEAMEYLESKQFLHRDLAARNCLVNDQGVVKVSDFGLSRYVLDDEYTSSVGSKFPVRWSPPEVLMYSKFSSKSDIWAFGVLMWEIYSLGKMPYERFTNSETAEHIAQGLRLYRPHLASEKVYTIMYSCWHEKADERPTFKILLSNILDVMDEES
Assay: Apparent affinity (EC50) of energy transfer probes by titration onto live HEK293 cells expressing kinase/Nluc fusions (Table S1)
Conditions: BTK, Nluc C; read-out: Probe EC50
endpoint_name: pEC50
# pEC50 = -log10(concentration in molar units)

Problem: Read the entry CNC(=O)c1ccccc1Nc1nc(Nc2ccc(N3CCN(C(=O)CCOCCOCCOCCOCCNC(=O)CCc4ccc5n4[B-](F)(F)[N+]4=C(c6ccc[nH]6)C=CC4=C5)CC3)cc2)ncc1Cl [Energy Transfer Probe 5] and write its reported pEC50.
Solution: 6.22

====

Target: full-length kinase/Nluc fusion proteins (Homo sapiens)
Sequence (Q8TD19 1-979): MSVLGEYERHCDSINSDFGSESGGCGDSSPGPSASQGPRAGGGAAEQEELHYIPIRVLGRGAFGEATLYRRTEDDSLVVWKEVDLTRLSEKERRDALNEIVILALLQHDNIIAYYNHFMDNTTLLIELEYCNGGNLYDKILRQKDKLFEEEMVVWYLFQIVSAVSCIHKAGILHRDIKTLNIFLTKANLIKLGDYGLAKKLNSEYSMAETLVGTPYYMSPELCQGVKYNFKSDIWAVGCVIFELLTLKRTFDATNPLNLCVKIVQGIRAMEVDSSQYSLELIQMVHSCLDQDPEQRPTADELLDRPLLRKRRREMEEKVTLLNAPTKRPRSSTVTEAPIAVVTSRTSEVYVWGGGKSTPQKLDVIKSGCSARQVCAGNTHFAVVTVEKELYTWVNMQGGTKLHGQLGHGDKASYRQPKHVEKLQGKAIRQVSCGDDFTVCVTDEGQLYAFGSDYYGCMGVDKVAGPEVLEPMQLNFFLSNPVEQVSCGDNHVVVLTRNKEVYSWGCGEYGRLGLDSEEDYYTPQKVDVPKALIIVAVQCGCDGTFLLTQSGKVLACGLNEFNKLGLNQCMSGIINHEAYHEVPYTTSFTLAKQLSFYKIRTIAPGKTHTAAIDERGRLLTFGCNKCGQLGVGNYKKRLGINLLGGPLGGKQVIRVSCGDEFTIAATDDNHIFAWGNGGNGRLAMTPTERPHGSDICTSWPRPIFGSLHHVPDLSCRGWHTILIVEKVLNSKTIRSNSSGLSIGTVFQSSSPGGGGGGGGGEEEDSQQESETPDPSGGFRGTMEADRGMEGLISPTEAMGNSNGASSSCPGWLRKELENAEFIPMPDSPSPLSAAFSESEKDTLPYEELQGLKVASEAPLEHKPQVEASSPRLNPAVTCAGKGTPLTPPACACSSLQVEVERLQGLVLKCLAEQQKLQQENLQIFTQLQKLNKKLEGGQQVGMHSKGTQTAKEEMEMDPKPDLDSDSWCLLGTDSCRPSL
Assay: Apparent affinity (EC50) of energy transfer probes by titration onto live HEK293 cells expressing kinase/Nluc fusions (Table S1)
Details: NEK9, Nluc N; read-out: Probe EC50
endpoint_name: EC50

Problem: State EC50 (full-length kinase/Nluc fusion proteins (Homo sapiens)) of CNC(=O)c1ccccc1Nc1nc(Nc2ccc(N3CCN(C(=O)CCOCCOCCOCCOCCNC(=O)CCc4ccc5n4[B-](F)(F)[N+]4=C(c6ccc[nH]6)C=CC4=C5)CC3)cc2)ncc1Cl [Energy Transfer Probe 5] .
Solution: > 1 µM
